# ASSAYED TARGET: human LFA-1 (human) (UniProt P20701)
# EXPERIMENT SUMMARY: phage ELISA, solution competition: Fab-phage incubated with serially diluted LFA-1, unbound phage captured on LFA-1-coated wells; IC50 used as affinity estimate
OUTCOME MEASURE: IC50
Write down the value, and be sure its unit follows.

# count of solved cases: 4
MHM24 library clone, CDR-L2 NARSLQS (Fab, V domains shown) VH: EVQLVESGGGLVQPGGSLRLSCAASGYSFTGHWMNWVRQAPGKGLEWVGMIHPSDSETRLNQKFKDRFTISADTSKNTAYLQMNSLRAEDTAVYYCARGIYFYGTTYFDYWGQGTLVTVSS VL: DIQMTQSPSSLSASVGDRVTITCRASKTISKYLAWYQQKPGKAPKLLIYNARSLQSGVPSRFSGSGSGTDFTLTISSLQPEDFATYYCQQHNEYPLTFGQGTKVEIK | 32 nM
MHM24 library clone, CDR-L2 SGRTLWP (Fab, V domains shown) VH: EVQLVESGGGLVQPGGSLRLSCAASGYSFTGHWMNWVRQAPGKGLEWVGMIHPSDSETRLNQKFKDRFTISADTSKNTAYLQMNSLRAEDTAVYYCARGIYFYGTTYFDYWGQGTLVTVSS VL: DIQMTQSPSSLSASVGDRVTITCRASKTISKYLAWYQQKPGKAPKLLIYSGRTLWPGVPSRFSGSGSGTDFTLTISSLQPEDFATYYCQQHNEYPLTFGQGTKVEIK | 17 nM
MHM24 library clone, CDR-L2 SGSTLES, VH D101E (Fab, V domains shown) VH: EVQLVESGGGLVQPGGSLRLSCAASGYSFTGHWMNWVRQAPGKGLEWVGMIHPSDSETRLNQKFKDRFTISADTSKNTAYLQMNSLRAEDTAVYYCARGIYFYGTTYFEYWGQGTLVTVSS VL: DIQMTQSPSSLSASVGDRVTITCRASKTISKYLAWYQQKPGKAPKLLIYSGSTLESGVPSRFSGSGSGTDFTLTISSLQPEDFATYYCQQHNEYPLTFGQGTKVEIK | 8 nM
MHM24 library clone, CDR-L2 SGRSLQS, VH S28R (Fab, V domains shown) VH: EVQLVESGGGLVQPGGSLRLSCAASGYRFTGHWMNWVRQAPGKGLEWVGMIHPSDSETRLNQKFKDRFTISADTSKNTAYLQMNSLRAEDTAVYYCARGIYFYGTTYFDYWGQGTLVTVSS VL: DIQMTQSPSSLSASVGDRVTITCRASKTISKYLAWYQQKPGKAPKLLIYSGRSLQSGVPSRFSGSGSGTDFTLTISSLQPEDFATYYCQQHNEYPLTFGQGTKVEIK | 17 nM

Okay, next one:
Enquiry: # query: IC50 of entry MHM24 library clone, CDR-L2 SGRALQS (Fab, V domains shown) VH: EVQLVESGGGLVQPGGSLRLSCAASGYSFTGHWMNWVRQAPGKGLEWVGMIHPSDSETRLNQKFKDRFTISADTSKNTAYLQMNSLRAEDTAVYYCARGIYFYGTTYFDYWGQGTLVTVSS VL: DIQMTQSPSSLSASVGDRVTITCRASKTISKYLAWYQQKPGKAPKLLIYSGRALQSGVPSRFSGSGSGTDFTLTISSLQPEDFATYYCQQHNEYPLTFGQGTKVEIK
Return: 9 nM
